- assay system: human prostanoid IP receptor (Homo sapiens, UniProt P43119)
- Construct: expressed in transfected cells
- Sequence (P43119 whole entry): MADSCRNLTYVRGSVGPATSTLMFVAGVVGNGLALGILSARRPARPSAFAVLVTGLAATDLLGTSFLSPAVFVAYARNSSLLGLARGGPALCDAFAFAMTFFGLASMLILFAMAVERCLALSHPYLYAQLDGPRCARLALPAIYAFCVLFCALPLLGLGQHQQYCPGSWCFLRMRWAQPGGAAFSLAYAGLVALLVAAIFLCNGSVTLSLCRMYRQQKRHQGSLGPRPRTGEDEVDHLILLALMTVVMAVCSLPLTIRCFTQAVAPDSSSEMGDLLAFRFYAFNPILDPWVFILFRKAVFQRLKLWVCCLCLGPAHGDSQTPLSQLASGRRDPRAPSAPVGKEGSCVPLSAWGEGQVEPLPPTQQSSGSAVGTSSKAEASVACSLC
- measurement protocol: FLIPR Ca2+ signaling antagonist assay, IP receptor stable cell line
- Format: cell-based
- condition summary: HEK-293 EBNA stable cell line; standard agonist Cicaprost; NA = inactive (no antagonism or Kb 10,000 nM); PAg, Ag not defined
experimental endpoint: Kb (µM)

CCC(CC)COc1ccc(OC(F)(F)F)cc1Cn1nc(CCC(=O)O)cc1C [Example 48]	2.3
C/C=C(\C)COc1ccc(Br)cc1Cn1nc(CCC(=O)O)cc1C [Example 9]	4.8
Cc1cc(CCC(=O)O)nn1Cc1cc(Cl)ccc1CCC1CCCC1 [Example 74]	2.2
Cc1cc(CCC(=O)O)nn1Cc1cc(Cl)ccc1OCC1(C(F)(F)F)CCC1 [Example 38]	6
COc1ccc(OCC2CCCC2)c(Cn2nc(CCC(=O)O)cc2C)c1 [Example 53]	6.9

[P] CCC(CC)COc1ccc(Cl)cc1Cn1nc(CC(C)C(=O)O)cc1C (racemic) [Example 68]
[Q] CCCCC(CC)COc1ccc(Br)cc1Cn1nc(CCC(=O)O)cc1C (centres unmarked) [Example 6]
[R] Cc1cc(CCC(=O)NS(=O)(=O)c2ccccc2)nn1Cc1cc(Cl)ccc1OCc1ccc(Cl)cc1 [Example 24]
*Q* Sort the 3 molecules by Kb; largest first, smallest last. The reply should contain the labels ordered as requested.
*A* P, Q, R

* * *

- assay system: human prostanoid EP3 receptor (Homo sapiens)
- Construct: expressed in transfected cells
- Sequence (P43115 whole entry): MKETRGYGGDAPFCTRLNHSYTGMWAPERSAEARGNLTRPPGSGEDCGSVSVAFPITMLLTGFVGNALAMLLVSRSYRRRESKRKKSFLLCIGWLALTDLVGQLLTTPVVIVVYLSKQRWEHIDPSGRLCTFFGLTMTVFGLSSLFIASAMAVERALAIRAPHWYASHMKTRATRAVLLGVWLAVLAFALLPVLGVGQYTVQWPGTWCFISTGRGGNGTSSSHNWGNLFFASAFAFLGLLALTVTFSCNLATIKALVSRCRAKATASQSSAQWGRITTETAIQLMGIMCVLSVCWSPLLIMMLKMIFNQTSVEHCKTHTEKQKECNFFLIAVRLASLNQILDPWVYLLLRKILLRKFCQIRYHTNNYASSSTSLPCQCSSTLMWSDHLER
- measurement protocol: FLIPR Ca2+ signaling antagonist assay, EP3 receptor stable cell line
- Type: cell-based
- condition summary: HEK-293 EBNA stable cell line; standard agonist PGE2; NA = inactive (no antagonism or Kb 10,000 nM); PAg, Ag not defined
experimental endpoint: Kb (µM)

[P] CCCCC(CC)COc1ccc(Br)cc1Cn1nc(CCC(=O)O)cc1C (centres unmarked)
[Q] Cc1cc(CCC(=O)O)nn1Cc1cc(Cl)ccc1C#CC1CCCC1
[R] Cc1cc(CCC(=O)NS(=O)(=O)C(F)(F)F)nn1Cc1cc(Br)ccc1OCC(C)C
[S] CCC(CC)COc1ccc(Cl)cc1Cn1nc(CC(C)C(=O)O)cc1C (racemic)
*Q* Put the entries in order of Kb, starting with the largest number. The reply should contain the labels ordered as requested.
*A* P, S, Q, R
(P: 8.8 µM, S: 5.2 µM, Q: 2.7 µM, R: 0.7 µM)

[I] Cc1cc(CCC(=O)O)nn1Cc1cc(Br)ccc1OCC1(C(F)(F)F)CCC1
[II] Cc1cc(CCC(=O)NS(=O)(=O)C(F)(F)F)nn1Cc1cc(Cl)ccc1OCc1ccc(Cl)cc1Cl
*Q* Of the two listed items, which has the higher Kb? First: I Second: II Give the label under which the chosen entry appears.
*A* I

* * *

- assay system: human prostanoid EP2 receptor (Homo sapiens)
- Construct: expressed in transfected cells
- Sequence (P43116 whole entry): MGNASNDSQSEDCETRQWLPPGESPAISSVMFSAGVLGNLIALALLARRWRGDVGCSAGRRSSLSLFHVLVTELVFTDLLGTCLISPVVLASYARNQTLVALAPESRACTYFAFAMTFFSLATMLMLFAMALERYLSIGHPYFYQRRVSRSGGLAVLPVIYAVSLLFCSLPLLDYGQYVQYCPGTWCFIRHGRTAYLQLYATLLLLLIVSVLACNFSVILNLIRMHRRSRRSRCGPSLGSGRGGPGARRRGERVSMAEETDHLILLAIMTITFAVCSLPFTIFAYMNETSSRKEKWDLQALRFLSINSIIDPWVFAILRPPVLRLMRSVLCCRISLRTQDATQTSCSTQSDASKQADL
- measurement protocol: FLIPR Ca2+ signaling antagonist assay, EP2 receptor stable cell line
- Type: cell-based
- condition summary: HEK-293 EBNA stable cell line; standard agonist PGE2; NA = inactive (no antagonism or Kb 10,000 nM); PAg, Ag not defined
experimental endpoint: Kb (µM)

Cc1cc(CCC(=O)O)nn1Cc1cc(Cl)ccc1OCc1ccc(Cl)cc1C(F)(F)F	9.8

[I] Cc1cc(CCC(=O)O)nn1Cc1cc(Cl)ccc1OCCC(C)C
[II] Cc1cc(CCC(=O)O)nn1Cc1cc(Cl)ccc1OCCCC(C)C
[III] Cc1cc(CCC(=O)O)nn1Cc1cc(C(F)(F)F)ccc1OCc1ccc(Cl)cc1
*Q* Sort the 3 compounds by Kb; largest first, smallest last. The reply should contain the labels ordered as requested.
*A* I, III, II
(I: 8.2 µM, III: 2.2 µM, II: 1.4 µM)

[a] Cc1cc(CCCCC(=O)O)nn1Cc1cc(Cl)ccc1OCC1CCCC1
[b] COc1ccc(COc2ccc(Cl)cc2Cn2nc(CCC(=O)O)cc2C)cc1
*Q* For a and b , which recorded Kb is lower? Give the label under which the chosen entry appears.
*A* b
(b: 2.5 µM, a: 8.2 µM)

[I] CCC(CC)COc1ccc(OC(F)(F)F)cc1Cn1nc(CCC(=O)O)cc1C
[II] CCC(CC)COc1ccc(Cl)cc1Cn1nc(CC(C)C(=O)O)cc1C (racemic)
[III] Cc1cc(CCC(=O)O)nn1Cc1cc(OC(F)(F)F)ccc1OCC1CCCC1
*Q* Sort the 3 compounds by Kb; largest first, smallest last. The reply should contain the labels ordered as requested.
*A* III, I, II
